Reported apparent KD of MS2 coat protein values follow for various sequences
tested on: MS2 coat protein; assay: apparent KD of MS2 coat protein, switch OFF state (with FMN for OFF switches, without FMN for ON switches); designed switch direction (-1 OFF switch, 1 ON switch): -1; higher = weaker reporter binding; details: FMN input: 0 or 200 uM; Eterna round: R93 (includes R88 designs)
Answer format: numeric, nM implied, no suffix.

sequence_record="AACCAACAUGAGGAUCACCCAUGUCAGGAUAUGCAAACAACAAACAACAAACAACAAAGCAGAAGGGACAAAAA [Amethyst 82]" target_system="MS2 coat protein" units_label=nM obs_value=19.5
sequence_record="ACAGUUAGAGGAUAUACGUGGAAAAAUAAAAAUAAAAAACUACAUGAGGAUCACCCAUGUAGAAGGCUAACUGA [Ex2 Design 196: Random 12E]" target_system="MS2 coat protein" units_label=nM obs_value=66.1
sequence_record="AAAAAACAUGAGGAUCACCCAUGUAAGGAUAUGCUAAAAAAAAAAAAAAAAAAAAAAUGCAGAAGGUACAAAAA [water's exclusion 1 again]" target_system="MS2 coat protein" units_label=nM obs_value=40.2
sequence_record="CUCAAGUGAGGAUAUAUAAGAAAAGAAGAGAAAGAAAAGAAAUAGAAGGCACAUGAGGAUCACCCAUGUAAGAA [EteRNA is fun!]" target_system="MS2 coat protein" units_label=nM obs_value=24.1
sequence_record="AGGUGACAUGAGGAUCACCCAUGUCAGGAUAUAUACACCACCGGCGUGAAGCCGGCGGAUAGAAGGGACAAAAU [Anesar]" target_system="MS2 coat protein" units_label=nM obs_value=18.2

Tell me reported apparent KD of MS2 coat protein for AGUAUGCGAGGAUAUACAUGAGGAUCACCCAUGUGAGAGAUAAAAGUGAGAAAGAAAAGUAGAAGGCGCGUACA [JL Lego Mod 21] , tested with MS2 coat protein.
326

---

test system: MS2 coat protein; assay: apparent KD of MS2 coat protein; designed switch direction (-1 OFF switch, 1 ON switch): 1; higher = weaker reporter binding; details: input ligand: microRNA oligo, concentration not stated
Measurement Name: apparent KD of MS2 coat protein (nM)
Answer format: numeric, nM implied, no suffix.

sequence_record="GCCAUCGUGUGAGGAUAUGGCACCGUUUCGGUGCCAGAAGGCAUGUCAAUUGACAUGAGGAUCACCCAUGUAUUAGCGAUGGCA [JL Fiskers NG1ss - 33 mod 3] (Eterna round: R96, puzzle: Same State NG 1)" measurement_name="apparent KD of MS2 coat protein" obs_value=292
sequence_record="AAUUAAGAUCGAGGAUAUCACGUCGAUUAGACGUGAGAAGGCGAUCAUAACAUGAGGAUCACCCAUGUAUUACAUGAAUUAAUU [SSNG1/4-B2] (Eterna round: R96, puzzle: Same State NG 1)" measurement_name="apparent KD of MS2 coat protein" obs_value=26.7

Proceed to the following item.
Entry under review: UAUUAGAUCCGAGGAUAUCCUUAUUACAAACAUGAGGAUCACCCAUGUAAAGGGAAUGAGUUGUAGGAGAAGGCGGAUUUAGUU [JR_SSNG2_Sub057] (Eterna round: R96, puzzle: Same State NG 2) . Reported apparent KD of MS2 coat protein?
33

---

Reported apparent KD of K4 kissing-loop reporter values follow for various sequences
system: K4 kissing-loop RNA reporter; assay: apparent KD of K4 kissing-loop reporter; higher = weaker reporter binding; conditions: Eterna round: R107; input ligand: none
Answer format: numeric, µM implied, no suffix.

sequence_record="GGAUCCACCAGUGAUGUUGGAGAAAACUCCGAGGAUAUGACGAAAGUCAGAAGGUGGUAGACUGGACAAAGUCCGGUCGGAUCCA [FmnA 24 #SwitchBubble #K4Early]" target_system="K4 kissing-loop RNA reporter" units_label=µM obs_value=0.288
sequence_record="AAGUGAUGUUGUAGUGAUGUUGUGAUGUUGCAGGAUAUAUAGUGAUGUAGAAGGGUAUGUGCAGUGUUGUUGUUUGAGUGUUCAU [dttyumullin]" target_system="K4 kissing-loop RNA reporter" units_label=µM obs_value=0.0737
sequence_record="AAUAAUGAUGUUUAGGAAAGUAAAAUGGAAGGAGCGUGCGAAAGCACAGGUAGGUCGCCAGUGAUGUUGGAACCUGAGCAUCAAA [#SwitchBubble 19 #K4Late]" target_system="K4 kissing-loop RNA reporter" units_label=µM obs_value=0.836
sequence_record="CGAGCGGAGUGAUGUUCCGUGCCAGCAGAUACCAGAUUGAAAGAGAUCCCUUGGCAGCUGCGUCACACCCUUACGUGAUAGGACC [theeternabot_sameState_KL_Theo_A_32]" target_system="K4 kissing-loop RNA reporter" units_label=µM obs_value=0.239
sequence_record="AAAUUUAAUAUAUUUAAUUAAUUAUGUGAUACCAGACAUUAAUAAGUCCCUUGGCAGCACAAUGCAGUGAUGUUGCUUAUAAUAA [JR_SSTheophyA_Sub010]" target_system="K4 kissing-loop RNA reporter" units_label=µM obs_value=0.0869

Entry under review: GUAUCGCUAGGAGGAUAUUUCAAAUAACCAAUAAAUGGUUAUACGGAGUGAUGUUCCGAUUUACGGAAAGAAGGCCUAGUGAUAC [FMN B 5] . Reported apparent KD of K4 kissing-loop reporter?
0.302

---

tested on: K4 kissing-loop RNA reporter; experiment: apparent KD of K4 kissing-loop reporter; higher = weaker reporter binding; settings: Eterna round: R107; input ligand: theophylline 20 uM;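 also: bound reporter read as fluorescence of individual clusters on recovered sequencing chips by microscopy, with normalized cluster intensities fitted with a binding model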
Measurement Name: apparent KD of K4 kissing-loop reporter (nM)
Answer format: numeric, nM implied, no suffix.

sequence_record="GAUUCAGUGAUGUUGGAAGGCGAGCGGGAUACCAGCCAAGACUCAGGCCCUUGGCAGCCCACAUAUCCCAGGUAGAUAGUAGCUC [Same State - Theophylline A (Freestyle 12)]" obs_value=146
sequence_record="AAGUGAUGUUGUAGUGAUGUUGUGAUGUUGCAGGAUAUAUAGUGAUGUAGAAGGGUAUGUGCAGUGUUGUUGUUUGAGUGUUCAU [dttyumullin]" obs_value=74.7
sequence_record="GUAUCGCUAGGAGGAUAUUUCAAAUAACCAAUAAAUGGUUAUACGGAGUGAUGUUCCGAUUUACGGAAAGAAGGCCUAGUGAUAC [FMN B 5]" obs_value=319
sequence_record="AAUACGAAGCAGUGAUGUUGCUUAUGAGAAGGAGCGCACGAAAGUGCAGGUAGGUCGCUCAGCCAUGUGGACGAAAACGUCCACA [whbob_SS_Arginine_A_sa109]" obs_value=102
sequence_record="GUUACGCAUGGAAGGAGCGCAGGCUCAACAAAUAGCUCAGUGAUGUUGAGCAUAUUAAAUCUGCAGGUAGGUCGCCAUGUGUAAC [Ex Arginine B K4 24]" obs_value=559
sequence_record="GGAGUUACCUGGGAUACCAGUCGGAGUCUCAGAGCUCGGAGUGAUGUUCUGGGAUGUUUCGGCCCUUGGCAGCUCUGGGACUCCA [#2 Exclusion - Theophylline B Attempt #16 (HarryS)]" obs_value=843

Entry under review: GGAGUUACCUGGGAUACCAGUCGGAGUCCCAGAGCUCAGAGUGAUGUUCUGGGAUGUUUCGGCCCUUGGCAGCUCUGGGACUCCC [#2 Exclusion - Theophylline B Attempt #12 (HarryS)] . Reported apparent KD of K4 kissing-loop reporter?
599

Entry under review: UAGGGCAUCGCAGGAUAUCCUGCUUAACGUUGGAUUCCAGUGAUGUUGGAAAGCCGGCCUAGGGUAGGAGAAGGGCGGACUUGAA [Riteteve] . Reported apparent KD of K4 kissing-loop reporter?
187

Entry under review: AAGGGCUAGGCGGCCGCCACUGGUCGUGUACACAUACAGACCAGUGAUGUUGGUAUUGUAUGCGACAGGACCGGGCCUAGCCCAA [Exclusion - Tryptophan B (Freestyle 29)] . Reported apparent KD of K4 kissing-loop reporter?
247

Entry under review: CGUUCUUCUGUCGAUACCAGCUUCAGUUGGCGGCCAGUGAUGUUGGUAUCGCCGAUGCCAAGCCCUUGGCAGCGACAUGAGACCC [Onrire] . Reported apparent KD of K4 kissing-loop reporter?
130

Entry under review: AUUAUAUAGGCGGCCGCCACUAGUGAUGUUAGUGACUUUAUGAAAACAUAAAGAAUAAAAUAAUAUAGGACCGGGCCAUAAUAUU [AstrosExTryB#5] . Reported apparent KD of K4 kissing-loop reporter?
427

Entry under review: GGUAUGGAAGCAACAUCACAAGCCGUACCACGAGGACCGGUACGGCCGCCACUCGAUAACUUGCAGUGAUGUUGCAAGUAAGAAU [(T)''-(K)'-(T)'-(T1)-(T2)-(K1)-(K2)_Design6] . Reported apparent KD of K4 kissing-loop reporter?
117

Entry under review: UGACAUUGCUCAGAUACCAGACUUGAGGAACACCCAAGUGCCAAAUAAACGUACAUAAAAGUCCCUUGGCAGCUGAGCAAUGUCU [TheoBX 11] . Reported apparent KD of K4 kissing-loop reporter?
104

Entry under review: CGUGGUGCUCGCCAGCUGUGCGAGCGGUGGGAGGAUAUGUCGCGAGACAGAAGGCCCAGUGAUGUUGGGCAGGCUCGUAGAUCAA [Orbemaed] . Reported apparent KD of K4 kissing-loop reporter?
133

Entry under review: GUAGACAGACUGCGGGCCUAGUCUACAGACUAGGAUAUCAGGAAACUGAGAAGGAGUCUAGUUGCAGUGAUGUUGCAAGAAUAAU [KL-SSFMN-A26] . Reported apparent KD of K4 kissing-loop reporter?
114

Entry under review: UUCUUGAUGGAAACAUCGAGGAUUACUGAUACCAGUAUCGAUAGAUACCCUUGGCAGCAGAAUCAGUAAUCACGAGUGAUGUUCG [Ex Theophylline A K4 6] . Reported apparent KD of K4 kissing-loop reporter?
583

Entry under review: AGAACUGUCUUGGAUACCAGUGAUGUUGGUAUCGAUGUGUGAGUGCAAAGCGUCCCACAUCGCCCUUGGCAGCUAAGACUGUUCA [Omei KL Theo B Exc A v4] . Reported apparent KD of K4 kissing-loop reporter?
349

Entry under review: AAGCGUAAAAUGGCGGACAUACUGCUCCCACGAGGACCGGUACGGCCGCCACUCGAAUGCGGCAGUGAUGUUGCCGCCUUCGCGU [Zauslereed] . Reported apparent KD of K4 kissing-loop reporter?
69.9

Entry under review: AAAAGCCAGCAAGGAUAUACGCGCGAAGCAUCCAUGGUGCCAGUUCCAGUGAUGUUGGACCACAUCGUAGAAGGUGCGCGGCUCA [theeternabot_sameState_KL_FMN_B_33] . Reported apparent KD of K4 kissing-loop reporter?
224

Entry under review: UGCACGGGCUCGGCCGCCACUCCCGCGGGUCGAAAGGUCCGCUACUGAGUGAUGUUCGGUUGGAGGAGGACCGGGAGCCCGUGCA [#2 Exclusion - Tryptophan B Attempt #24 (HarryS)] . Reported apparent KD of K4 kissing-loop reporter?
69.7

Entry under review: UUGGAAAUCAGAAGGAGCGUCUAAAAUAAGAGAACCAGUGAUGUUGGUUUUAUUUAAUGAAGACAGGUAGGUCGCUGAAUUUUUA [Same State Arginie B GF 19] . Reported apparent KD of K4 kissing-loop reporter?
96.1

Entry under review: AAUAACUUGCAGUGAUGUUGCAAGAAAGCUCAGGAUAUCAGGAAACUGAGAAGGGAGCAUCCUGAGCAAACAUCACAACUUAGGA [[K1]-[K2]-[F1]-[F2]-[F]'-[K]'-[F]''_Design2] . Reported apparent KD of K4 kissing-loop reporter?
448
